Values were extracted from a melting point compilation (Tetko et al.; mined from patent text by program, amines drawn as free bases though some values may be those of a salt).

Items are presented alongside their recorded melting point.

CC1CN(C)CCC1(O)c1cc2ccccc2o1 (stereo not drawn) | 128 to 130 °C
CCCNC(=O)n1nc(Oc2ccc(C(F)(F)F)cc2[N+](=O)[O-])cc1C | 50 to 51 °C
CCOC(=O)c1[nH]c2cc(Cl)cc(Cl)c2c1C(=O)OCC | 167 to 170 °C

Now look at this one.
Consider the molecule c1ccc(C(OC2CCN(CCCCNc3ccc4nncn4n3)CC2)c2ccccc2)cc1 . State its measured melting point.
145 to 146 °C

----------
Items are presented alongside their recorded melting point.

Worked cases, melting point given:
O=c1c2c(Cl)cc(N3CCNCC3)cc2n(Cc2ccccc2)c(=O)n1Cc1cccc(I)c1 | 98 to 104 °C
N#Cc1ccc(-c2ccc(C(F)(F)F)cn2)cc1SCC1CC1 | 135 to 136 °C
CC=CC=CC(=O)Nc1ccc2ncnc(Nc3cccc(Br)c3)c2c1 | 258 to 260 °C
COc1nc(N)nn1C | 177 to 180 °C
CC(C)(C)c1ccc2c(c1)C(CO)c1cc(C(C)(C)C)ccc1S2 | 158 to 159 °C

Now look at this one.
Consider the compound O=C(O)CCc1ccc(-c2nc3c(=O)n(CC4CCCCC4)c(=O)n(CC4CCCCC4)c3[nH]2)cc1 . State its measured melting point.
> 300 °C
